- tested-system: T1, corticotropin releasing factor 2 receptor
- T1 sequence (Q13324 whole entry, species assumed, looked up): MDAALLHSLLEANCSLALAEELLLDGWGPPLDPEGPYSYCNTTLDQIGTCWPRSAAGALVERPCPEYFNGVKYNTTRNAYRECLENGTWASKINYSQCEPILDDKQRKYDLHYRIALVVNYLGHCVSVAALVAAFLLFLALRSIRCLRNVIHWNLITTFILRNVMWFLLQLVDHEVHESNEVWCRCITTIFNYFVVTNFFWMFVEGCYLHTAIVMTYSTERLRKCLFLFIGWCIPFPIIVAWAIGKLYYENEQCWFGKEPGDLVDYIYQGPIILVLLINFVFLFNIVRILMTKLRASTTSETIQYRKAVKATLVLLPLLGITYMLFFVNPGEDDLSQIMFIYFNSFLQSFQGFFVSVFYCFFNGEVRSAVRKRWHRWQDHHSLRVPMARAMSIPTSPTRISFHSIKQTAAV
- assay-notes: cell-based or functional assay
Ends that are not written are not given here.
Overview of recorded CRF2R EC50 for various binders
Provide only the numeric value, understood in nM.

Solved cases below.
ZGPPISIDLPYWLLRKMIEIEKQEKEKQQAANNARLLARI (C-terminal amide) [SEQ ID NO 289] : 12.2
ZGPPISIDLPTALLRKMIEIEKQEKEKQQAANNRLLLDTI (not fully specified; C-terminal amide) [SEQ ID NO 301] : 50.5
ZGPPISIDLPFQLLRKAIEIEKQEKEKQQATTNARLLDRV (C-terminal amide) [SEQ ID NO 363] : 25.1

So what does the record say about CRF2R EC50 for ZGPPISIDLPLHLLRKMIEIEKQEKEKQQAANNALLLDTI (C-terminal amide) [SEQ ID NO 240] ? 22

So what does the record say about CRF2R EC50 for DNPSLSIDLPLLLLRTLLELEKTQSQRERAEQNAHIFAHV-NH2 [SEQ ID NO 328] ? 11.7

So what does the record say about CRF2R EC50 for ZGPPISIDLPVALLRKMIEIEKQEKEKQQAANNRLLLDTI (not fully specified; C-terminal amide) [SEQ ID NO 305] ? 35.5
